assay: qHTS RealTime-Glo MT Cell Viability Assay in HEK293 cells - 8 hour (AID 1224887); conditions: RealTime-Glo luminescence; series mostly up to 76.8 µM; also: nearly all actives have a fitted effect of over 50% in size
Records with an inconclusive call do not appear. Active and inactive are the calls of the source. Calls follow the shape of the dose curve; as a rule, active = well fitted cell-killing curve with a large enough effect in the repeat runs; inconclusive = weak or mixed curves, or effect the other way; inactive = flat fitted curve, though single readings scatter.
Respond only with the outcome that fits, drawn from 1.0 = active, 0.0 = inactive

Use these answered entries as a reference point.
INSERT INTO measurements (compound, qualitative_label) VALUES
  ('C[C@H]1O[C@@H](O[C@H]2CC[C@@]3(C)[C@H](CC[C@@H]4[C@@H]3C[C@@H](O)[C@]3(C)[C@@H](C5=CC(=O)OC5)CC[C@]43O)C2)C[C@H](O)[C@@H]1O[C@H]1C[C@H](O)[C@H](O[C@H]2C[C@H](O)[C@H](O[C@@H]3O[C@H](CO)[C@@H](O)[C@H](O)[C@H]3O)[C@@H](C)O2)[C@@H](C)O1', 0.0),
  ('CN(C[C@@H](CC[N+]12CCC(C3CCCCC3)(CC1)CC2)c1ccc(Cl)c(Cl)c1)C(=O)c1cc(C(F)(F)F)cc(C(F)(F)F)c1', 1.0),
  ('Nc1cc([N+](=O)[O-])ccc1Cl', 0.0);

Now, please, on to the next compound.
Task: Can you look up the reported call for [Cl][Dy]([Cl])[Cl] for me?
Result: 0.0

====

assay: A CellTox Green Cytotoxicity Assay to monitor cytotoxicity in HepG2 cells - 32 hour (AID 1224883); settings: CellTox Green fluorescence; series mostly up to 76.8 µM; also: nearly all actives have a fitted effect of over 50% in size
Records with an inconclusive call do not appear. Active and inactive are the calls of the source. Calls come from the whole dose curve; as a rule, active = well fitted activation curve with a large enough effect in the repeat runs; inconclusive = weak or mixed curves; inactive = flat fitted curve, though single readings scatter.
The categories you may choose from are YES = active, NO = inactive

INSERT INTO measurements (molecule, qualitative_label) VALUES
  ('Brc1cc(Br)cc(Br)c1', 'NO');

Pending molecule:
Task: For this molecule, state the assay outcome: Oc1ccc2c(c1)CCC2
Result: NO

====

Assay: qHTS assay to test for compound auto fluorescence at 590 nm (red) in HepG2 cell free culture (AID 720684)
Settings: cell-free medium autofluorescence, red 540/590 nm; series mostly up to 46 µM
Excerpt: U.S. Tox21 Program National Center for Advancing Translational Sciences [NCATS] NIH Chemical Genomics Center [NCGC] U.S. Environmental Protection Agency [EPA] National Institutes of Environmental Health Sciences [NIEHS] National Toxicology Program [NTP] U.S. Food and Drug Administration [FDA] Tox21 Assay Overview: Compound auto fluorescence often interferes with screening of the compound library against various biological targets and signaling pathways. […] This assay includes the red fluorescence data. […]
Activity calls are given as the source filed them. Calls follow the shape of the dose curve; as a rule, active = well fitted curve in the direction sought with a large enough effect in the repeat runs; inconclusive = weak or mixed curves; inactive = flat fitted curve, though single readings scatter.
quantity-measured: outcome

Recorded results for 4 molecules are shown here.
INSERT INTO assay_data (molecule, result) VALUES
  ('CCOc1ccc(S(=O)(=O)O)c2cccnc12', 'inactive'),
  ('O=C(CCCN1CCN2CCCC2C1)c1ccc(F)cc1 (centres undefined)', 'inactive'),
  ('c1ccc(-c2ccc(C(c3ccccc3)n3ccnc3)cc2)cc1 (centres undefined)', 'inactive'),
  ('CO/N=C(\C(=O)N[C@@H]1C(=O)N2C(C(=O)[O-])=C(C[n+]3cccc4c3CCC4)CS[C@H]12)c1csc(N)n1', 'inactive');

Attention now shifts to the item below.
Task: What value of outcome has been reported for the following molecule? CC(C)(COP(=O)(O)OP(=O)(O)OC[C@H]1O[C@@H](n2cnc3c(N)ncnc32)[C@H](O)[C@@H]1OP(=O)(O)O)C(O)C(=O)NCCC(=O)NCCS (some centres undefined)
Result: inactive

Cited source for all entries: PubChem BioAssay (Tox21)
